Field: relative viability. Provide a value for each of the molecules that follow.
system: NCI-H3122; assay: relative viability (nuclei count vs DMSO), 5 days (fraction); higher = more cells survive; conditions: first compound 6.325 µM
Numbers only.

Below are worked cases with known answers.
[[record]]
molecule = "Cc1csc(=NC2CCCCC2)n1/N=C/c1ccc(O)c(O)c1O [MIM1] + NC(=O)Nc1cc(-c2cccc(F)c2)sc1C(=O)N[C@H]1CCCNC1 [AZD7762] (partner 0.2 µM)"
measured_endpoint = "relative viability"
reported_measurement = 0.472

[[record]]
molecule = "Cc1csc(=NC2CCCCC2)n1/N=C/c1ccc(O)c(O)c1O [MIM1] + C[C@]1(O)C[C@@H](c2nc(-c3ccc4ccc(-c5ccccc5)nc4c3)c3c(N)nccn32)C1 [Linsitinib] (partner 1 µM)"
measured_endpoint = "relative viability"
reported_measurement = 0.926

[[record]]
molecule = "Cc1csc(=NC2CCCCC2)n1/N=C/c1ccc(O)c(O)c1O [MIM1] + CC(C)C[C@H](NC(=O)[C@H](Cc1ccccc1)NC(=O)c1cnccn1)B(O)O [Bortezomib] (partner 0.002 µM)"
measured_endpoint = "relative viability"
reported_measurement = 0.986

[[record]]
molecule = "Cc1csc(=NC2CCCCC2)n1/N=C/c1ccc(O)c(O)c1O [MIM1] + CC(=O)Nc1cccc(-n2c(=O)n(C3CC3)c(=O)c3c(Nc4ccc(I)cc4F)n(C)c(=O)c(C)c32)c1 [Trametinib] (partner 0.02 µM)"
measured_endpoint = "relative viability"
reported_measurement = 0.302


Next:
State the recorded relative viability for this entry: Cc1csc(=NC2CCCCC2)n1/N=C/c1ccc(O)c(O)c1O [MIM1] + O=C(c1cc(Cc2n[nH]c(=O)c3ccccc23)ccc1F)N1CCN(C(=O)C2CC2)CC1 [Olaparib] (partner 8 µM) 0.325

Source listed as the supplement of paper PMC10307832.
